Biological target: Sodium- and chloride-dependent betaine transporter (Homo sapiens)
Sequence (P48065 whole entry): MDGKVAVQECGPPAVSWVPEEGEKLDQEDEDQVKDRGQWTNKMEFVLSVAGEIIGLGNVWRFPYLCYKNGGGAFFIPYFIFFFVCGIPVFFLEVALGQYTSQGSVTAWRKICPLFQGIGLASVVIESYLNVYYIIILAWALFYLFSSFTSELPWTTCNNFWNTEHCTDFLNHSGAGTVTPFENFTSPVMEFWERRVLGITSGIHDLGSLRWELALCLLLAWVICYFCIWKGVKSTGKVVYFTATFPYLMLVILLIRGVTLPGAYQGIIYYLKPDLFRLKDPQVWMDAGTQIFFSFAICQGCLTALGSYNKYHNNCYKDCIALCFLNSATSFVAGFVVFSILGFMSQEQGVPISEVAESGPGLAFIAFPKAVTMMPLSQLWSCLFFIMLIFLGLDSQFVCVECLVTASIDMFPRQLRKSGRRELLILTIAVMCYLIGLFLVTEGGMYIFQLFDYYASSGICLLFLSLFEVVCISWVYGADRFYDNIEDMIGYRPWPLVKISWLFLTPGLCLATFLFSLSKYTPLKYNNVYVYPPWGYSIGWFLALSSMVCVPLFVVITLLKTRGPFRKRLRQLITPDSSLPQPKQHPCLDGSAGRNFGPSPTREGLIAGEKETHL
Experiment: Inhibition of human BGT-1 expressed in mouse L-M(TK-) cells assessed as inhibition of [3H]GABA uptake
assay-endpoint: pIC50
Note on pIC50: it is the negative log10 of concentration, concentration in mol/L.

Exercise: Given COc1ccc(C(OCCN2CCCC(C(=O)O)C2)(c2ccc(OC)cc2)c2ccc(OC)cc2)cc1 (stereo unspecified) , state its recorded pIC50.
Solution: 3.85

----------
Target: UniProt:P30531
Sequence (P30531 whole entry): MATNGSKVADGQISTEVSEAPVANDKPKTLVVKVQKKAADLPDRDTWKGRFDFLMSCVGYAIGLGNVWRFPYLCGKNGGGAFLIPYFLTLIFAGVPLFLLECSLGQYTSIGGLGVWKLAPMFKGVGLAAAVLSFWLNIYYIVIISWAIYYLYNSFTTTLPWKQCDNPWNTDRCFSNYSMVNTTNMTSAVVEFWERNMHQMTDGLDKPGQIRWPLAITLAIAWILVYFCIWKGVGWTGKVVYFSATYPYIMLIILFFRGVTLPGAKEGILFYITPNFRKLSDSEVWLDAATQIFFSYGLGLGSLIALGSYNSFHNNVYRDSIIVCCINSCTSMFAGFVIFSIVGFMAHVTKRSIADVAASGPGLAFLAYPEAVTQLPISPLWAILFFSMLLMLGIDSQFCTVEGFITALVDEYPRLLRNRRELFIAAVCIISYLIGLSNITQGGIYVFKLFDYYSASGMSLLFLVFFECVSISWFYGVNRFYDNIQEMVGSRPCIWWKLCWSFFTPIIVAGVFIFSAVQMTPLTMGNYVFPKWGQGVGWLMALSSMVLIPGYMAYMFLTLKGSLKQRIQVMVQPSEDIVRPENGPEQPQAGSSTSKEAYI
Experiment: Inhibition of human GAT-1 expressed in mouse L-M(TK-) cells assessed as inhibition of [3H]GABA uptake
assay-endpoint: IC50

Exercise: Given COc1ccc(C(OCCN2CCCC(C(=O)O)C2)(c2ccc(OC)cc2)c2ccc(OC)cc2)cc1 (stereo unspecified) , state its recorded IC50.
Solution: > 200 µM

----------
Test: Protective index, ratio of ED50 for motor coordination in mouse to ED50 for protection against DMCM-induced seizures in NMRI mouse
Assay type: toxicity
Details: read-out: PI
assay-endpoint: selectivity ratio
Answer with the value's number alone.

compound: O=C(O)C1CCCN(CCOCCN2c3ccccc3CCc3ccccc32)C1 (configuration not stated)
selectivity ratio: 5.7

Please examine the following record next.
Exercise: Given Cl.O=C(O)C1CCCN(CCO/N=C(\Cc2ccccc2F)c2ccccc2F)C1 (configuration not stated) , state its recorded selectivity ratio.
Solution: 5.2

----------
# pIC50 annotations
Test: Inhibition of GAT-mediated [3H]-GABA uptake in rat forebrain synaptosomes preincubated for 8 mins followed by [3H]-GABA addition measured after 8 mins by scintillation counting method
Format: subcellular
Note on pIC50: it is the negative log10 of concentration, concentration in mol/L.

molecule: Cc1ccsc1C(=CCCN1CCC[C@@H](C(=O)O)C1)c1sccc1C.Cl [TIAGABINE HYDROCHLORIDE]
pIC50: 7.17

molecule: Cc1ccccc1/C(=C\CCN1CCC[C@@H](C(=O)O)C1)c1sccc1C.Cl
pIC50: 7.11

molecule: Cc1ccsc1/C(=C/CCN1CCC[C@@H](C(=O)O)C1)c1cccs1.Cl
pIC50: 7.21

Please examine the following record next.
Exercise: Given Cl.O=C(O)C1CCCN(CCO/N=C(\Cc2ccccc2F)c2ccccc2F)C1 (centres undefined) , state its recorded pIC50.
Solution: 7.10

----------
# Activity annotations
System: Mus musculus
Assay: Anticonvulsant activity in mouse assessed as protection against PTZ-induced convulsions at 100 mg/kg, ip pretreated for 1 hr followed by PTZ administration relative to Tiagabine
Assay type: functional
Write it as a number; the unit % goes unstated.

Check out these entries, answers already filled in.
molecule: COc1cccc(-c2nnc(CN3CCCC(C(=O)O)C3)o2)c1 (stereo not given)
target-system: Mus musculus
Activity, %: 83.33
//
molecule: N#Cc1cccc(-c2nnc(CN3CCCC(C(=O)O)C3)o2)c1 (stereo not given)
target-system: Mus musculus
Activity, %: 83.33
//
molecule: O=C(O)C1CCCN(Cc2nnc(-c3ccc(O)cc3O)o2)C1 (stereo not given)
target-system: Mus musculus
Activity, %: 100
//
molecule: O=C(O)C1CCCN(Cc2nnc(-c3cc([N+](=O)[O-])cc([N+](=O)[O-])c3)o2)C1 (stereo not given)
target-system: Mus musculus
Activity, %: 66.66

Please examine the following record next.
Exercise: Given COc1cc(N)c(-c2nnc(CN3CCCC(C(=O)O)C3)o2)cc1OC (stereo not given) , state its recorded Activity.
Solution: 66.66
